Biological target: T1, CD4 (Homo sapiens, UniProt P01730)
T1 construct: endogenous in cells; host or cells: SUP-T1 cells
Assay: CD4 competitive binding assay (FITC anti-human CD4 antibody, SUP-T1 cells)
Details: 100 μM; inhibition of anti-human CD4 antibody binding to SUP-T1 cells
# inhibition at 100 µM per entry

{"smilesCode": "Nc1ccc(S(=O)(=O)c2ccc(NCN3C(=O)NC(=O)C(=O)C3=O)cc2)cc1", "qualifier": "=", "inhibition at 100 µM / %": 36.9}
{"smilesCode": "Cn1c(=O)c2c(nc(NCCNc3nc4c(c(=O)n(C)c(=O)n4C)n3C)n2C)n(C)c1=O", "qualifier": "=", "inhibition at 100 µM / %": 34.2}
{"smilesCode": "O=C(O)Cc1cccc2c(=O)cc(-c3ccccc3)oc12", "qualifier": ">", "inhibition at 100 µM / %": 20}
{"smilesCode": "O=c1oc2c(cc1O)oc(=O)c1cc(O)c(O)c(O)c12", "qualifier": "=", "inhibition at 100 µM / %": 16}
{"smilesCode": "N[C@@H](CSC1(c2ccc(Cl)cc2)c2ccccc2-c2ccccc21)C(=O)O", "qualifier": "=", "inhibition at 100 µM / %": 22.6}
{"smilesCode": "O=C(O)CCc1c2ccc(=O)c(O)c-2oc2c(O)c(O)ccc12", "qualifier": "=", "inhibition at 100 µM / %": 94.9}
